molecular target: human group X (hG-X) sPLA2 (Homo sapiens); assay: In vitro antiphospholipase activity; assay type: biochemical
Sequence (O15496 43-165): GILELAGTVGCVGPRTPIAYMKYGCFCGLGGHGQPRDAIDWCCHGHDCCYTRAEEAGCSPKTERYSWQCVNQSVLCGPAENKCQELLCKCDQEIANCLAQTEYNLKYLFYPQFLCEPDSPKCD
measure: IC50 (µM)
The response must be a number in µM with no trailing unit.

For record COc1cc(-n2c(C)nc3ccccc3c2=O)cc(OC)c1OC the listed IC50 is 23.4

----------
Target: trypsin (Bos taurus)
Construct: gene PRSS1
Sequence (P00760 24-246): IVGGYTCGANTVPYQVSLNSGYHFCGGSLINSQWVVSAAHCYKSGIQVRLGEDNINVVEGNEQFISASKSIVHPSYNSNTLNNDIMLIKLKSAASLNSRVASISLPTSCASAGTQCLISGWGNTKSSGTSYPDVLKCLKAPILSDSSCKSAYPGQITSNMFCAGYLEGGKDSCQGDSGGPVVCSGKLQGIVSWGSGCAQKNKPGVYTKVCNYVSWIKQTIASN
Assay: In vitro antiprotease activity
Type: biochemical
Settings: 15 min preincubation; read-out: mean IC50 against Trypsin (converted)
Experimental: The inhibitory effects of 21 3H-quinazolin-4-one derivatives on several available therapeutically important proteases such as cathepsin-B, collagenase, elastase, thrombin, and trypsin were investigated. […] The protease inhibitory activity was expressed as inhibition percentage, which was determined by comparison with a control experiment. The results were expressed as IC50 values that were determined from the standard curve. A protease inhibitor cocktail (Sigma) was used as the positive control.
measure: IC50 (µM)
The response must be a number in µM with no trailing unit.

Consider the worked cases shown below.
{"compound": "Cc1cccc(NC(=O)CSc2nc3ccccc3c(=O)n2-c2ccccc2)c1C [Compound 15e]", "unit-annotation": "µM", "obs-value": 81.8}
{"compound": "COc1cc(-n2c(C)nc3ccc(Cl)cc3c2=O)cc(OC)c1OC", "unit-annotation": "µM", "obs-value": 6.24}
{"compound": "Cc1nc2ccccc2c(=O)n1/N=C/c1ccc2ccccc2c1", "unit-annotation": "µM", "obs-value": 110}
{"compound": "Cc1nc2ccccc2c(=O)n1NC(=O)OCC(C)C", "unit-annotation": "µM", "obs-value": 4}

Let us examine a further case.
Query Cc1nc2ccc(Br)cc2c(=O)n1/N=C/c1ccc2ccccc2c1 on trypsin (Bos taurus); IC50 returned: 65

----------
biological target: collagenase; assay: In vitro antiprotease activity; format: biochemical; settings: 15 min preincubation
Entries and their measured mean IC50 against Collagenase follow.
The response must be a number in µg/mL with no trailing unit.

{"molecule": "Cc1nc2ccccc2c(=O)n1/N=C/c1ccc(-c2ccccn2)cc1 [Compound 8c]", "mean IC50 against Collagenase / µg/mL": 23.50}
{"molecule": "COc1cccc(/C=N/n2c(C)nc3ccccc3c2=O)c1[N+](=O)[O-] [Compound 8e]", "mean IC50 against Collagenase / µg/mL": 15.50}

For record COc1cc(-n2c(C)nc3ccc(Cl)cc3c2=O)cc(OC)c1OC [Compound 5c] the listed mean IC50 against Collagenase is 21.50

For record Cc1nc2ccccc2c(=O)n1/N=C/N(C)C [Compound 12] the listed mean IC50 against Collagenase is 35.50

----------
Molecular target: UniProtKB P39877
Sequence (P39877 21-138): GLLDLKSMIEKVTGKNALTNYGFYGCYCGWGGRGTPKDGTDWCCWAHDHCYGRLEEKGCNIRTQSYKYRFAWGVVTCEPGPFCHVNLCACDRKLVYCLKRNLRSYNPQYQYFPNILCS
Experiment: In vitro antiphospholipase activity
Format: biochemical
measure: IC50 (µM)
The response must be a number in µM with no trailing unit.

For record COc1cc(-n2c(C)nc3ccccc3c2=O)cc(OC)c1OC [Compound 5a] the listed IC50 is 29.4

----------
Read-out record for human group IIA (hG-IIA) sPLA2 (Homo sapiens, UniProt P14555): log10 IC50
Answers are given as log10 of IC50 in µM.

Query Cc1nc2ccccc2c(=O)n1/N=C/c1ccc(-c2ccccc2)cc1 [Compound 8i] on human group IIA (hG-IIA) sPLA2 (Homo sapiens, UniProt P14555); log10 IC50 returned: 1.66

Query Cc1nc2ccccc2c(=O)n1/N=C/N(C)C [Compound 12] on human group IIA (hG-IIA) sPLA2 (Homo sapiens, UniProt P14555); log10 IC50 returned: 2.30

Query Cc1ccc2nc(SCc3ccc(Cl)cc3)n(-c3ccccc3)c(=O)c2c1 [Compound 15b] on human group IIA (hG-IIA) sPLA2 (Homo sapiens, UniProt P14555); log10 IC50 returned: 1.82

Query COc1cccc(/C=N/n2c(C)nc3ccccc3c2=O)c1[N+](=O)[O-] [Compound 8e] on human group IIA (hG-IIA) sPLA2 (Homo sapiens, UniProt P14555); log10 IC50 returned: 1.69

Query Cc1nc2ccccc2c(=O)n1NC(=O)OCC(C)C [Compound 10] on human group IIA (hG-IIA) sPLA2 (Homo sapiens, UniProt P14555); log10 IC50 returned: 1.75
